Test system: MDA-MB-468
Assay: normalised response (% of control), CellTiter-Glo; higher = more viable cells (100 = DMSO, 0 = benzethonium chloride kill control)
Settings: incubation time: 72 h
In this section we review reported normalised response values for a set of compounds.
Just the number please, in %, no unit attached.

compound: CC(C)c1c(C(=O)Nc2ccccc2)c(-c2ccccc2)c(-c2ccc(F)cc2)n1CC[C@@H](O)C[C@@H](O)CC(=O)O [Atorvastatin] (1000 nM)
assayed.system: MDA-MB-468
scale.unit: %
normalised response: 93.2

Query block: # lookup: normalised response of CC[C@]1(O)C[C@H]2CN(CCc3c([nH]c4ccccc34)[C@@](C(=O)OC)(c3cc4c(cc3OC)N(C=O)[C@H]3[C@@](O)(C(=O)OC)[C@H](OC(C)=O)[C@]5(CC)C=CCN6CC[C@]43[C@@H]65)C2)C1 [Vincristine] (0.1 nM)
Result block: 112

Query block: # lookup: normalised response of CN1CCN(CCOc2cc(OC3CCOCC3)c3c(Nc4c(Cl)ccc5c4OCO5)ncnc3c2)CC1 [Saracatinib] (1000 nM)
Result block: 79.2

Query block: # lookup: normalised response of CN1CCN(CCOc2cc(OC3CCOCC3)c3c(Nc4c(Cl)ccc5c4OCO5)ncnc3c2)CC1 [Saracatinib] (10 nM)
Result block: 93.2

----------
System: HCC1599
Assay: drug sensitivity score (DSS), CellTiter-Glo (DSS (AUC-based score)); higher = stronger drug effect (viability inhibition or cytotoxicity); extreme values may be limits of the assay
Conditions: incubation time: 72 h
Please note: criterion met applies when drug sensitivity score is 1 or greater, and criterion not met applies otherwise.

molecule: CCCCCCCCc1ccc(CCC(N)(CO)CO)cc1
discrete.label: criterion not met
--
molecule: CN(C)CCN1C(=O)c2cccc3cc(N)cc(c23)C1=O [Amonafide]
discrete.label: criterion not met

Query block: Given `CNNCc1ccc(C(=O)NC(C)C)cc1` , state whether its drug sensitivity score is at least 1.
Result block: criterion not met

Query block: Given `Cn1c(=O)n(-c2ccc(C(C)(C)C#N)cc2)c2c3cc(-c4cnc5ccccc5c4)ccc3ncc21` , state whether its drug sensitivity score is at least 1.
Result block: criterion met

Query block: Given `CC(C)c1c(C(=O)Nc2ccccc2)c(-c2ccccc2)c(-c2ccc(F)cc2)n1CC[C@@H](O)C[C@@H](O)CC(=O)O` , state whether its drug sensitivity score is at least 1.
Result block: criterion not met

Query block: Given `CN1CCN(CCOc2cc(OC3CCOCC3)c3c(Nc4c(Cl)ccc5c4OCO5)ncnc3c2)CC1` , state whether its drug sensitivity score is at least 1.
Result block: criterion met

Query block: Given `COc1ccc(-c2ccc3c(N4CCOC[C@@H]4C)nc(N4CCOC[C@@H]4C)nc3n2)cc1CO` , state whether its drug sensitivity score is at least 1.
Result block: criterion met

----------
Test system: MCF-10A
Test: drug sensitivity score (DSS), CellTiter-Glo (DSS (AUC-based score)); higher = stronger drug effect (viability inhibition or cytotoxicity); extreme values may be limits of the assay
Settings: incubation time: 72 h
quantity: drug sensitivity score
Output: the number by itself.

compound: Nc1nc(OCc2cc(Br)cs2)c2[nH]cnc2n1 [Lomeguatrib]
assayed.system: MCF-10A
drug sensitivity score: 0

compound: c1ccc([C@H]2CN3CCSC3=N2)cc1 [Levamisole]
assayed.system: MCF-10A
drug sensitivity score: 0

compound: Cn1c(=O)n(-c2ccc(C(C)(C)C#N)cc2)c2c3cc(-c4cnc5ccccc5c4)ccc3ncc21 [Dactolisib]
assayed.system: MCF-10A
drug sensitivity score: 9.78

Query block: # lookup: drug sensitivity score of NS(=O)(=O)OC[C@@H]1C[C@@H](n2ccc3c(N[C@H]4CCc5ccccc54)ncnc32)C[C@@H]1O [Pevonedistat]
Result block: 0

----------
In this section we review reported normalised response values for a set of molecules.
Tested on: HCC1599
Assay: normalised response (% of control), CellTiter-Glo; higher = more viable cells (100 = DMSO, 0 = benzethonium chloride kill control)
Settings: incubation time: 72 h
Just the number please, in %, no unit attached.

Solved cases (3 shown):
molecule: CC(C)c1c(C(=O)Nc2ccccc2)c(-c2ccccc2)c(-c2ccc(F)cc2)n1CC[C@@H](O)C[C@@H](O)CC(=O)O [Atorvastatin] (100 nM)
assayed.system: HCC1599
normalised response, %: 105
--
molecule: CCCCCCCCc1ccc(CCC(N)(CO)CO)cc1 [Fingolimod] (100 nM)
assayed.system: HCC1599
normalised response, %: 107
--
molecule: CN(C)CCN1C(=O)c2cccc3cc(N)cc(c23)C1=O [Amonafide] (100 nM)
assayed.system: HCC1599
normalised response, %: 74.9

Turning now to a further record.
Query block: # lookup: normalised response of CN(C)C[C@@H]1CCn2cc(c3ccccc32)C2=C(C(=O)NC2=O)c2cn(c3ccccc23)CCO1 [Ruboxistaurin] (100 nM)
Result block: 105

----------
In this section we review reported drug sensitivity score values for a set of compounds.
System: SK-BR-3
Assay: drug sensitivity score (DSS), CellTiter-Glo (DSS (AUC-based score)); higher = stronger drug effect (viability inhibition or cytotoxicity); extreme values may be limits of the assay
Conditions: incubation time: 72 h

Solved cases (3 shown):
smiles.data: CN1CCN(CCOc2cc(OC3CCOCC3)c3c(Nc4c(Cl)ccc5c4OCO5)ncnc3c2)CC1
quantity: drug sensitivity score
value.reported: 2.63
--
smiles.data: CC[C@]1(O)C[C@H]2CN(CCc3c([nH]c4ccccc34)[C@@](C(=O)OC)(c3cc4c(cc3OC)N(C=O)[C@H]3[C@@](O)(C(=O)OC)[C@H](OC(C)=O)[C@]5(CC)C=CCN6CC[C@]43[C@@H]65)C2)C1
quantity: drug sensitivity score
value.reported: 27.7
--
smiles.data: NS(=O)(=O)OC[C@@H]1C[C@@H](n2ccc3c(N[C@H]4CCc5ccccc54)ncnc32)C[C@@H]1O
quantity: drug sensitivity score
value.reported: 21.7

Query block: # lookup: drug sensitivity score of `CO[C@H]1C[C@@H]2CC[C@@H](C)[C@@](O)(O2)C(=O)C(=O)N2CCCC[C@H]2C(=O)O[C@H]([C@H](C)C[C@@H]2CC[C@@H](OCCO)[C@H](OC)C2)CC(=O)[C@H](C)/C=C(\C)[C@@H](O)[C@@H](OC)C(=O)[C@H](C)C[C@H](C)/C=C/C=C/C=C/1C`
Result block: 12.7

----------
System: SK-BR-3
Details: 72 h
quantity: EC50, CellTiter-Blue viability (nM)
Just the number please, in nM, no unit attached.

compound: CC[C@]1(O)C[C@H]2CN(CCc3c([nH]c4ccccc34)[C@@](C(=O)OC)(c3cc4c(cc3OC)N(C=O)[C@H]3[C@@](O)(C(=O)OC)[C@H](OC(C)=O)[C@]5(CC)C=CCN6CC[C@]43[C@@H]65)C2)C1 [Vincristine]
EC50, CellTiter-Blue viability [nM]: 0.608

Query block: # lookup: EC50, CellTiter-Blue viability of CO[C@H]1C[C@@H]2CC[C@@H](C)[C@@](O)(O2)C(=O)C(=O)N2CCCC[C@H]2C(=O)O[C@H]([C@H](C)C[C@@H]2CC[C@@H](OCCO)[C@H](OC)C2)CC(=O)[C@H](C)/C=C(\C)[C@@H](O)[C@@H](OC)C(=O)[C@H](C)C[C@H](C)/C=C/C=C/C=C/1C [Everolimus]
Result block: 0.945

Query block: # lookup: EC50, CellTiter-Blue viability of COc1ccc(-c2ccc3c(N4CCOC[C@@H]4C)nc(N4CCOC[C@@H]4C)nc3n2)cc1CO [AZD8055]
Result block: 20.1

Query block: # lookup: EC50, CellTiter-Blue viability of Cn1c(=O)n(-c2ccc(C(C)(C)C#N)cc2)c2c3cc(-c4cnc5ccccc5c4)ccc3ncc21 [NVP-BEZ235]
Result block: 26.4

----------
In this section we review reported EC50, CellTiter-Glo values for a set of compounds.
System: BT-474
Conditions: 72 h
Just the number please, in nM, no unit attached.

Query block: Write down the reported EC50, CellTiter-Glo of CCCCCCCCc1ccc(CCC(N)(CO)CO)cc1 [Fingolimod] , test system: BT-474.
Result block: 2870

----------
Test system: HDQ-P1
Conditions: 72 h
quantity: EC50, CellTiter-Glo (nM)
Just the number please, in nM, no unit attached.

Solved cases (3 shown):
smiles.data: Cn1c(=O)n(-c2ccc(C(C)(C)C#N)cc2)c2c3cc(-c4cnc5ccccc5c4)ccc3ncc21
EC50, CellTiter-Glo / nM: 12.8

smiles.data: NS(=O)(=O)OC[C@@H]1C[C@@H](n2ccc3c(N[C@H]4CCc5ccccc54)ncnc32)C[C@@H]1O
EC50, CellTiter-Glo / nM: 1560

smiles.data: CN1CCN(CCOc2cc(OC3CCOCC3)c3c(Nc4c(Cl)ccc5c4OCO5)ncnc3c2)CC1
EC50, CellTiter-Glo / nM: 541

Query block: # lookup: EC50, CellTiter-Glo of `C/C(=C\c1csc(C)n1)[C@@H]1C[C@@H]2O[C@]2(C)CCC[C@H](C)[C@H](O)[C@@H](C)C(=O)C(C)(C)[C@@H](O)CC(=O)O1`
Result block: 66.7

Query block: # lookup: EC50, CellTiter-Glo of `Cn1cncc1[C@@](N)(c1ccc(Cl)cc1)c1ccc2c(c1)c(-c1cccc(Cl)c1)cc(=O)n2C`
Result block: 106
